Read-out record for Klebsiella pneumoniae ATCC 13883: MIC
Kindly provide the numeric value in µM only, without the unit symbol.

>  <smiles.notation>
CC[C@H](C)[C@H](NC(=O)[C@H](CCCN=C(N)N)NC(=O)[C@H](CCCN=C(N)N)NC(=O)[C@H](CC(C)C)NC(=O)[C@H](Cc1c[nH]c2ccccc12)NC(=O)[C@H](CCCN=C(N)N)NC(=O)[C@@H](N)Cc1c[nH]c2ccccc12)C(=O)N[C@@H](Cc1c[nH]c2ccccc12)C(N)=O

>  <assayed.system>
Klebsiella pneumoniae ATCC 13883

>  <MIC [µM]>
25

$$$$

Give measured MIC for CC[C@H](C)[C@H](NC(=O)[C@H](Cc1cnc[nH]1)NC(=O)[C@@H]1CCCN1C(=O)[C@@H](NC(=O)[C@H](CC(C)C)NC(=O)[C@H](CO)NC(=O)[C@H](CC(C)C)NC(=O)[C@@H](N)Cc1ccccc1)[C@@H](C)CC)C(=O)N[C@H](C(=O)N[C@@H](CO)C(=O)NCC(=O)N[C@H](C(=O)N[C@@H](C)C(=O)N[C@@H](CO)C(=O)N[C@@H](CC(C)C)C(=O)N[C@@H](C)C(=O)N[C@@H](CCCCN)C(=O)N[C@@H](Cc1cnc[nH]1)C(=O)N[C@@H](Cc1ccccc1)C(N)=O)C(C)C)C(C)C (Klebsiella pneumoniae ATCC 13883).
25
